target: Butyrophilin subfamily 3 member A1 (Homo sapiens, UniProt O00481); experiment: Activation of BTN3A1 in human Vgamma9Vdelta2 T cells assessed as induction of interleukin 2 stimulated cell proliferation treated for 72 hrs measured on day 11 post last treatment by flow cytometry
Sequence (O00481 whole entry): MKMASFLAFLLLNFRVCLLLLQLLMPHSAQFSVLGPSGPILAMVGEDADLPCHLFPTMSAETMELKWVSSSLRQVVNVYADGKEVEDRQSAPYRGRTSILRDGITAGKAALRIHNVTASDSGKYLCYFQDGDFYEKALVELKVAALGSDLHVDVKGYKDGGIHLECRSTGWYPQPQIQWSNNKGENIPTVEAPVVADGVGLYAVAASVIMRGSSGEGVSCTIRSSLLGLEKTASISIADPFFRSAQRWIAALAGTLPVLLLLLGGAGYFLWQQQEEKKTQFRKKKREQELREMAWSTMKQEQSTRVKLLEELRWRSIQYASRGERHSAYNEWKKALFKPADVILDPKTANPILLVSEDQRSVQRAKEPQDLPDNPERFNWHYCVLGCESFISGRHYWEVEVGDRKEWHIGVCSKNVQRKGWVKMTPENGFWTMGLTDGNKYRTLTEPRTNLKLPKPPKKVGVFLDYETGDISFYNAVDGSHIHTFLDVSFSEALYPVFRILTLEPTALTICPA
pEC50: −log10 of the molar value.
quantity_measured: pEC50

If you can, please state the reported pEC50 value of `[C]C([C])=[C][C][C]P(=O)(O)[C]P(=O)(O)O` .
< 4.00

====

biological target: Butyrophilin subfamily 3 member A1 (Homo sapiens, UniProt O00481); assay: Activation of BTN3A1 in human Vgamma9Vdelta2 T cells assessed as induction of T effector cells mediated K562 cell lysis preincubated with K562 cells for 2 hrs followed by T effector cell addition measured after 4 hrs
quantity_measured: EC50

Returns the measured EC50 for the input compound. Input: `[C]C([C])=[C][C][C]P(=O)(O)[C]P(=O)(O)O`
> 100 µM

====

experiment: Activation of BTN3A1 in human Vgamma9Vdelta2 T cells assessed as induction of T effector cells mediated K562 cell lysis preincubated with K562 cells for 2 hrs followed by T effector cell addition measured after 4 hrs
# reported EC50; entries follow
# unit: µM | format: bare number

{"molecule": "CC(C)=CCCP(=O)(CP(=O)(OCOC(=O)C(C)(C)C)OCOC(=O)C(C)(C)C)OCOC(=O)C(C)(C)C (centres undefined)", "quantity_measured": "EC50", "reading_unit": "µM", "measured_value": 7.3}
{"molecule": "C/C(=C\\CCP(=O)(CP(=O)(OCOC(=O)C(C)(C)C)OCOC(=O)C(C)(C)C)OCOC(=O)C(C)(C)C)CO (centres undefined)", "quantity_measured": "EC50", "reading_unit": "µM", "measured_value": 0.28}

Field: next molecule
Please look up its EC50: `CC(=CCCP(=O)(O)CP(=O)(O)O)CO`
41

====

test: Activation of BTN3A1 in human Vgamma9Vdelta2 T cells assessed as induction of interleukin 2 stimulated cell proliferation treated for 72 hrs measured on day 11 post last treatment by flow cytometry
Recorded EC50, one value per entry.

{"molecule": "CC(C)=CCCP(=O)(CP(=O)(OCOC(=O)C(C)(C)C)OCOC(=O)C(C)(C)C)OCOC(=O)C(C)(C)C (configuration not stated)", "measured_value": "> 100 µM"}

Turning to the following molecule.
# get_value(readout='EC50', item= COP(=O)(CC/C=C(\C)CO)CP(=O)(OC)OC (configuration not stated) )
> 100 µM

// provenance: BindingDB's records for doi:10.1021/acs.jmedchem.6b00965
